target: His-tagged recombinant human TrkA (Homo sapiens (Human), UniProt P04629); test: TrkA LanthaScreen Eu Kinase Binding Assay; conditions: averaged IC50; TR-FRET binding, 60 min, 22° C.; read-out: TrkA Enzyme IC50
Sequence (P04629 440-796): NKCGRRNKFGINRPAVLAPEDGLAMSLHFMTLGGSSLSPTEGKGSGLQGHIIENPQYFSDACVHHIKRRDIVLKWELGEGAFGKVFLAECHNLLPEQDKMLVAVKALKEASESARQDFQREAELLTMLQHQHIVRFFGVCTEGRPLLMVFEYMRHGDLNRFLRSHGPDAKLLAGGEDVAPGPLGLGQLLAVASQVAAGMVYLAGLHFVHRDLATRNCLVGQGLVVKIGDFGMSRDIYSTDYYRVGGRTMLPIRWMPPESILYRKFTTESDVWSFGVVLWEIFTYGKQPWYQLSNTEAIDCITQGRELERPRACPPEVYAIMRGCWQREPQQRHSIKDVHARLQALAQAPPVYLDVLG
pIC50: −log10 of the molar value.
Measured endpoint: pIC50

Example entries begin here.
# Compound, pIC50
data = [
    ("CNC(=O)c1nn(-c2ccccc2)c(NC(=O)N[C@@H]2c3ccccc3C(C)(C)C[C@H]2O)c1C (relative stereo) [Example 124]", "> 7.00"),
    ("Cc1c(OC[C@H]2CNCCO2)nn(-c2ccccc2)c1NC(=O)N[C@@H]1c2ccccc2C(C)(C)C[C@H]1O [Example 150]", "> 7.00"),
    ("Cc1c(-c2cnn(C)c2)nn(-c2ccccc2)c1NC(=O)N[C@@H]1c2cc(F)ccc2C2(CC2)[C@H]1O (relative stereo) [Example 63]", "> 7.00"),
    ("Cc1c(-c2cnn(C)c2)nn(-c2ccccc2)c1NC(=O)NC1CCC(=O)c2ccccc21 (stereo not drawn) [Example 36]", "6.00 to 7.00"),
    ("Cc1c(-c2ccc(=O)n(C)c2)nn(-c2ccccc2)c1NC(=O)NC1CCN(C)c2ccccc21 (stereo not drawn) [Example 41]", "> 7.00"),
    ("Cc1c(-c2cnn(C)c2)nn(-c2ccccc2)c1NC(=O)NC1CCSc2ccc(Br)cc21 (stereo not drawn) [Example 112]", "> 7.00"),
    ("CCN1CCC(NC(=O)Nc2c(C)c(-c3ccc(=O)n(C)c3)nn2-c2ccccc2)c2ccccc21 (stereo not drawn) [Example 42]", "> 7.00"),
    ("Cc1c(-c2cnn(C)c2)nn(-c2ccccc2)c1NC(=O)NC1CCN(C)c2ccccc21 (stereo not drawn) [Example 40]", "6.00 to 7.00"),
    ("Cc1c(-c2cnn(C)c2)nn(-c2ccccc2)c1NC(=O)N[C@@H]1c2ccc(F)cc2C2(CC2)[C@H]1O (relative stereo) [Example 64]", "> 7.00"),
    ("Cc1c(-c2cnn(C)c2)nn(-c2ccccc2)c1NC(=O)NC1CC2(CCC2)Oc2ccc(Br)cc21 (stereo not drawn) [Example 34]", "> 7.00"),
]

input: Give pIC50 for the following compound: Cc1c(-c2ccc(=O)n(C)c2)nn(-c2ccccc2)c1NC(=O)NC1CCN(C)c2c(F)cc(Cl)cc21 (stereo not drawn) [Example 44]
output: > 7.00

input: Provide only the value of recorded pIC50 for CO[C@H]1Cc2ccccc2[C@@H]1NC(=O)Nc1c2c(nn1-c1ccccc1)CCC2 [Example 47]
output: 6.00 to 7.00

input: Give pIC50 for Cc1c(NC(=O)N[C@@H]2c3ccccc3C(C)(C)C[C@H]2O)n(-c2ccccc2)[nH]c1=O (relative stereo) [Example 95]
output: > 7.00

input: Read the entry Cc1c(OCCO)nn(-c2ccccc2)c1NC(=O)N[C@@H]1c2ccccc2C(C)(C)C[C@H]1O [Example 149] and write its reported pIC50.
output: > 7.00

input: Read the entry Cc1c(-c2cnn(C)c2)nn(-c2ccccc2)c1NC(=O)N[C@@H]1c2ccccc2C(C)(C)[C@H]1O [Example 72] and write its reported pIC50.
output: > 7.00

Data provenance: patent US10351575B2
